The measurements presented in this section are drawn from paper PMC8198049.

# protocol: Cytotoxicity assay (resazurin-based viability)
# Type: cell-based
# experimentalConditions: human, HEK293 cells, mean ± standard deviation, two separate experiments
measurementKind: log10(IC50 at 72 h) (log10 of the value in µM)

compound	log10(IC50 at 72 h)
COC1=CN(C)c2cccc3c2c1nc1ccccc13 [Compound 8b]	0.70
C=CCn1cc2c3ccccc3nc-2c2ccccc21 [Compound 3c, 5-Allyl-5H-indolo[3,2-c]quinoline]	0.50
COc1ccc(C[C@H](N)C(=O)N[C@H]2[C@@H](O)[C@H](n3cnc4c(N(C)C)ncnc43)O[C@@H]2CO)cc1 [Puromycin, puromycin, reference compound]	-2.52
c1ccc2c(c1)Nc1ccnc3cccc-2c13 [Compound 4a, 7H-pyrido[4,3,2-gh]phenanthridine]	0.45
c1ccc2c(c1)ncc1c3ccccc3[nH]c21 [Compound 14, 11H-indolo[3,2-c]quinoline]	1.27
CCn1cc2c3ccccc3nc-2c2ccccc21 [Compound 3b, 5-Ethyl-5H-indolo[3,2-c]quinoline]	0.49
Cn1cc2c3ccccc3nc-2c2ccccc21 [Isocryptolepine (3a), isocryptolepine]	0.32
CN1C=Cc2nc3ccccc3c3cccc1c23 [Compound 8a]	0.87
COc1cnc2cccc3c2c1Nc1ccccc1-3 [Compound 4b]	0.56
